- MEASURED ON: T1, hT40 (T441, SEQ ID NO: 1) (Homo sapiens, UniProt P10636)
- T1 construct: Full length tau (hT40)
- TEST: Biacore X100 SPR kinetics of scAbs for hT40
- Type: binding
- CONDITIONS: Table 25; '3a' and '3b' scAbs, hT40

MOLECULE | ka / M⁻¹ s⁻¹
3bG4: N-terminal anti-tau clone, Table 6; SEQ ID NO: 425 (protein, 3bG4 amino acid sequence) QVQLQESGPSLVKPSQTLSLTCTISGFSLISNGVGWVRQAPGKVPEWVGDIASSGKAYSNPALKSRLSITRDTSKSQVSLSLRSVTTEDTAVYYCVRCRDGGVTYGYDIDYWGPGLLVTVSSEGKSSGASGESKVDDQAVLTQPSSVSKSLGQSVSITCSGSTSNVGSGNDVSWFQQVPGSAPKLLFYGATNRASGVPDRFSGSRSGNTATLTITSLQAEDEADYYCGSYDSNSGGIFGSGTRLTVLG | 6.669e+06
3aA6: anti-tau clone, Table 8; SEQ ID NO: 418 (protein, 3aA6 amino acid sequence) QVRLQESGSSLVKPSQTLSLVCTVSGFPLTSNAVGWVRQAPGKAPEWLGLIDIDGDTAYNPALESRLSITRDTSKSQVSLSLSSVAIEDTAVYYCARHYDKWGYADSIDYWGPGLLVTVSSEGKSSGASGESKVDDQALLTQPSSVFGSLGQRVSITCSGSSSNVGYGDYVGWYQQVPGSAPKLLIYDATTRASGVPDRFSGSRSGNTATLTISSLQAEDEADYYCASYQNERSGVFGSGTRLTVLG | 19000
